# Tested target: T1, human Protein S (human, UniProt P07225 42-676)
# T1 construct: also called ProS; ProS1
# T1 sequence: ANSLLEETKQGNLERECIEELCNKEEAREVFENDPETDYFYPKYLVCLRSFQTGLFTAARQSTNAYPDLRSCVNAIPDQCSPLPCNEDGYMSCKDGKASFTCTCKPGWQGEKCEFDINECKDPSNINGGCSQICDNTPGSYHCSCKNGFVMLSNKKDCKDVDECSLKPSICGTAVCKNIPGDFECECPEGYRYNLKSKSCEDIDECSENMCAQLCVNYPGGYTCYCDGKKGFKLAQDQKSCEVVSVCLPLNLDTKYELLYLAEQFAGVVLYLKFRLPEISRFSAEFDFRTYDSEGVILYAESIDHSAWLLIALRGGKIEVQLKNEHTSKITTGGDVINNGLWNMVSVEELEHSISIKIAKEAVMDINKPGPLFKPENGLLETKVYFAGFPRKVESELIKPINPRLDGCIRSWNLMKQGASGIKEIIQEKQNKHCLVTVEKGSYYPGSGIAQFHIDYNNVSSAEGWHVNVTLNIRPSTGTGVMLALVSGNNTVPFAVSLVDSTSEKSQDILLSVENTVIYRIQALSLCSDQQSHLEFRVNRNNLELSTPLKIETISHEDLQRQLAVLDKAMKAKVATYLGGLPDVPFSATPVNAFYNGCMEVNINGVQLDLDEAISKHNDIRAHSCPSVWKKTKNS
# Run description: SPR Biacore X100; antibody captured by anti-human IgG (Fc); Protein S 2-128 nM; 5 mM CaCl2; 1:1 fit
Value type: kon (M⁻¹ s⁻¹)
Your answer should be a plain number; it is taken to be in M⁻¹ s⁻¹.

{"Binder": "Antibody 1 (antibody, V domains shown, Same variable regions as Antibody 13) VH: QVQLVQSGAEVKKPGSSVKVSCKVSGGTFSSYSISWVRQAPGQGLEWMGGIIPIFGTTNYAQKFQGRVTITADESTSTAYMDLSSLKSEDTAMYYCEGGRVGADFDYWGQGTLVTVSS VL: SSDLTQGPAVSVALGQTVRITCQGDSLRNYYASWYQQKPGQAPVPVIYGKNDRPSGIPDRFSGSISGNTASLTITGAQAEDEAHYYCNSRDSSGNHVVFGGGTKLTVL", "kon / M⁻¹ s⁻¹": 290000}
{"Binder": "Antibody 2 (antibody, V domains shown, Same variable regions as Antibody 14) VH: QVQLQESGPGLVKPSQTLSLTCTVSGGSITSDGYHWSWIRQYPGKGLDWIGYIYYTGNTYYNPSLKSRVTISVGTSQNQFSLKLISVTAADTAVYYCARRLSTGPYFDYWGQGTLVTVSS VL: QSALTQPASVSGSPGQSITISCTGTSSDVGGYEFVSWYQHHPGKAPKLMIYDVSSRPSGVSNRFSGSKSGNTASLTISGLQAEDEADYYCSSYTRSSTVVFGGGARLTVL", "kon / M⁻¹ s⁻¹": 346000}
{"Binder": "Antibody 12 (antibody, V domains shown, Same variable regions as Antibody 24) VH: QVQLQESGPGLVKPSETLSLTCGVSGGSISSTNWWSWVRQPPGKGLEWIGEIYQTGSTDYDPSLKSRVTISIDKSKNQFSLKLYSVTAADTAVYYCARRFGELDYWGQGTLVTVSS VL: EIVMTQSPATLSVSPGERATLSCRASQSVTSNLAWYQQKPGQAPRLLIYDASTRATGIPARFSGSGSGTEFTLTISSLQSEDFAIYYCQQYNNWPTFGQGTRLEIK", "kon / M⁻¹ s⁻¹": 657000}
{"Binder": "Antibody 11 (antibody, V domains shown, Same variable regions as Antibody 23) VH: QVQLVQSGAEVKKPGASVKVSCKSSGHTFTGYYMHWVRQAPGQGLEWMGWINPNSGDTNYAQKFQGRVTMTRDTSISTAYMEMSRLRSDDTAVYYCARDSQILWFGELGYWGQGTLVTVSS VL: QAVVTQESALTTSPGETVTLTCRSSTGAVTASNYANWVQEKPDHLFTGLIGSTNNRAPGVPARFSGSLIGDKAALTITGAQTEDEAIYFCALWYSDHFVFGGGTKLTVL", "kon / M⁻¹ s⁻¹": 116000}
{"Binder": "Antibody 8 (antibody, V domains shown, Same variable regions as Antibody 20) VH: QVQLQESGPGLVKPSETLSLTCAVSGYSISSGYYWGWIRQPPGKGLDWIGSIYYSGSTYYNPSLKSRVTISVDTSKNQISLKLSSVTAADTAVYYCATTYSDIVTGYYNDAFDIWGQGTMVTVSS VL: EIVMTQSPATLSVSPGERATLSCRASQRINSNLAWYQQKPGQAPRLLIYGASTRATGIPARFSGSGSGTEFTLTISSLQSEDFAAYYCQQYDNWPLTFGGGTKVEIK", "kon / M⁻¹ s⁻¹": 132000}
{"Binder": "Antibody 3 (antibody, V domains shown, Same variable regions as Antibody 15) VH: EVQLVESGGGLVQPGRSLRLSCAASGFTFDDYAMHWVRQAPGKGLEWVSGITWNSGNIGYADSVKGRFTISRDNAKNSLYLHMNSLRIEDTAFYYCAKGRAVSDTFDIWGQGTMVTVSS VL: SYELNQPPSVSVSPGQTASITCSGDKLGDKYASWYQQKPGQSPVVAIYQNSKRPSGIPERFSASNSGNTATLTISGTQALDEADYYCQAWDSSTWVFGGGTKLTVL", "kon / M⁻¹ s⁻¹": 253000}

--- query ---
Name the recorded kon of the binder listed here: Antibody 4 (antibody, V domains shown, Same variable regions as Antibody 16) VH: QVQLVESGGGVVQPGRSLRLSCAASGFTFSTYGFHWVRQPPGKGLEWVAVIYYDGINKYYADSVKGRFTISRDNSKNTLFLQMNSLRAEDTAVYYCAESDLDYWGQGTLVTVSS VL: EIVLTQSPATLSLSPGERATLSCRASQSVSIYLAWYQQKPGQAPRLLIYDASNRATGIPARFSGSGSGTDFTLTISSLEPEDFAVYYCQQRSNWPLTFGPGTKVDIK 399000
